Reported EC50 by item:
Target: T1, Full-length human TIGIT on CHO-K1 cells (CHO-K1 human TIGIT) (human, UniProt Q495A1 22-244)
T1 construct: NCBI XP_024309156.1; the entry includes the signal peptide (limits not recoverable); The strain (high, medium, low) is named under assay; also called high expression strain 1D2; medium expression strain 2D10
T1 sequence: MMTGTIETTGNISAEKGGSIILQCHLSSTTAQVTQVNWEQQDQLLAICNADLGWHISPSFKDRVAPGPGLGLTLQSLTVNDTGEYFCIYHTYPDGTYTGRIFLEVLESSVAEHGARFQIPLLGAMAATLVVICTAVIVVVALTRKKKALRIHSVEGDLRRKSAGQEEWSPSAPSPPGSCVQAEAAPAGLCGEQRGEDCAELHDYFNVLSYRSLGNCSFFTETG
Assay: FACS; CHO-K1 human TIGIT low expression strain

Examples from the recorded data:
>>> endpoint_value("TIGIT-006-H5L3 (antibody, V domains shown, Humanized anti-TIGIT antibody) VH: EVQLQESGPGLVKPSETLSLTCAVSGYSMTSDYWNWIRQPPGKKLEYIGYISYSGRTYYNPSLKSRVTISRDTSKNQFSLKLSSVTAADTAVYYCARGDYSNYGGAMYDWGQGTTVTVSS VL: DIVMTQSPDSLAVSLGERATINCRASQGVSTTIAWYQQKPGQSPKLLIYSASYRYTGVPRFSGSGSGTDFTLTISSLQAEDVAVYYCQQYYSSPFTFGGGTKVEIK")
"0.268 nM"
>>> endpoint_value("TIGIT-002-H4L3 (antibody, V domains shown, Humanized anti-TIGIT antibody) VH: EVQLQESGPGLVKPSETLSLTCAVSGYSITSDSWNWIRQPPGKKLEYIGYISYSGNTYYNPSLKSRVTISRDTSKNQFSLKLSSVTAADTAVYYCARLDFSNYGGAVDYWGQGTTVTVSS VL: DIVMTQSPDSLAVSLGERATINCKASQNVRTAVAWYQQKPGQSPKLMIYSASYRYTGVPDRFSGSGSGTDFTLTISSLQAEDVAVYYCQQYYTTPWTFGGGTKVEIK")
"0.17 nM"
>>> endpoint_value("TIGIT-070-H1L1 (antibody, V domains shown, Humanized anti-TIGIT antibody) VH: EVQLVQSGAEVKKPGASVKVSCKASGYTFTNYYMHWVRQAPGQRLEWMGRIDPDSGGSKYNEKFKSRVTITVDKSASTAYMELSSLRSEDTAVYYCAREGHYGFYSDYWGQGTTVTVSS VL: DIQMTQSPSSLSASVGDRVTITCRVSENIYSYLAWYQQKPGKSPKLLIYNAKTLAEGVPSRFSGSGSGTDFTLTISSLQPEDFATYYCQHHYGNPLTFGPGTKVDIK")
"0.305 nM"

Ask: Which measured EC50 value corresponds to TIGIT-005-H2L1d (antibody, V domains shown, Humanized anti-TIGIT antibody with NG-site mutation in VL) VH: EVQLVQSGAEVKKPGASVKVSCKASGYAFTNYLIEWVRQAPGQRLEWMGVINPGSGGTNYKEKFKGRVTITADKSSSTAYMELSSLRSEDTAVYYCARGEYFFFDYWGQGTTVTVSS VL: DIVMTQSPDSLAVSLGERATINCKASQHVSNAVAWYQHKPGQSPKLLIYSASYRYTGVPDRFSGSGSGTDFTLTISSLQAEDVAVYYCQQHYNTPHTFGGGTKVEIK ?
Result: 0.186 nM
